pKd values by entry
- SYSTEM: BRAF (V600E) (Homo sapiens, UniProt P15056, V600E)
- Sequence (P15056 whole entry V600E): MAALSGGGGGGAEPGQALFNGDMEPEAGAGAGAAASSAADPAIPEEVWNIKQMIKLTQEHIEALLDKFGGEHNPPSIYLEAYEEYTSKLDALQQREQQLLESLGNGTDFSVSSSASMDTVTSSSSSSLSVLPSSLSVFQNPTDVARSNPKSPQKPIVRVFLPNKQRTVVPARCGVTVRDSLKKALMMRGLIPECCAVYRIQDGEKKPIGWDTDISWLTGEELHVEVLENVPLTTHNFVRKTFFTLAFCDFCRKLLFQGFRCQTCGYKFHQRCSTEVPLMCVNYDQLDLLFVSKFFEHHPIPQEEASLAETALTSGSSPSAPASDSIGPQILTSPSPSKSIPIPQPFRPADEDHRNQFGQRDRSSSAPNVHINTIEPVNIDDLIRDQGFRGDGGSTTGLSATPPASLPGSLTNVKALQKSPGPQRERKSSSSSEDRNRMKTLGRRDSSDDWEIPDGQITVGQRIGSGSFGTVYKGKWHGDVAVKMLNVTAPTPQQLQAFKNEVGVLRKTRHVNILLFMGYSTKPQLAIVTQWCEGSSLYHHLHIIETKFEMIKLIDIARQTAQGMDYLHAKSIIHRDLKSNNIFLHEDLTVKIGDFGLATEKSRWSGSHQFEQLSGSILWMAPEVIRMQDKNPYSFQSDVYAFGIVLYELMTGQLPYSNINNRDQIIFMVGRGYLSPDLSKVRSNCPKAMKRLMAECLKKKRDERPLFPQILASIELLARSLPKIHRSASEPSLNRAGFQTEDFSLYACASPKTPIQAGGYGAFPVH
- EXPERIMENT: KD BRAF (V600E) (Table 1)
On this scale, pKd is minus log10 of a concentration expressed in M (mol/L).

Record excerpt, results attached:
compound="CC(C)(C)OC(=O)NCCCn1cnc2ccc(Oc3c(F)ccc(NS(=O)(=O)N4CCCC4)c3C#N)cc2c1=O [Example 5]" system="BRAF (V600E) (Homo sapiens, UniProt P15056, V600E)" recorded_number=8.55
compound="CC(C)(C)OC(=O)N1CCN(CCn2cnc3ccc(Oc4c(F)ccc(NS(=O)(=O)N5CCCC5)c4C#N)cc3c2=O)CC1 [Example 16]" system="BRAF (V600E) (Homo sapiens, UniProt P15056, V600E)" recorded_number=8.67
compound="CC(C)(C)OC(=O)N1CCC(NC(=O)CCCn2cnc3ccc(Nc4cccc(NS(=O)(=O)N5CC[C@@H](F)C5)c4C#N)cc3c2=O)CC1 [Example 41]" system="BRAF (V600E) (Homo sapiens, UniProt P15056, V600E)" recorded_number=8.03
compound="CCC(C)S(=O)(=O)Nc1ccc(F)c(Oc2ccc3ncn(CCN4CCN(C(=O)OC(C)(C)C)CC4)c(=O)c3c2)c1C#N (stereo not shown) [Example 29]" system="BRAF (V600E) (Homo sapiens, UniProt P15056, V600E)" recorded_number=7.72
compound="CC(C)(C)OC(=O)CCCn1cnc2ccc(Nc3cccc(NS(=O)(=O)N4CC[C@@H](F)C4)c3C#N)cc2c1=O [Example 35]" system="BRAF (V600E) (Homo sapiens, UniProt P15056, V600E)" recorded_number=7.68
compound="CC(C)(C)OC(=O)N1CCN(C(=O)CCCn2cnc3ccc(Nc4cccc(NS(=O)(=O)N5CC[C@@H](F)C5)c4C#N)cc3c2=O)CC1 [Example 40]" system="BRAF (V600E) (Homo sapiens, UniProt P15056, V600E)" recorded_number=8.10

Read the next record carefully.
Value lookup for pKd; key = CC(=O)N(C)CCCn1cnc2ccc(Oc3c(F)ccc(NS(=O)(=O)C4CCCC4)c3C#N)cc2c1=O [Example 24]
9.12
